Property: EC50 (ng/ml), cell viability after 7 days, Human CD90+ cells; scope: individual binders
Target: Human cKIT on human mobilized peripheral blood hematopoietic stem cells (human, UniProt P10721 26-976)
Test: cell-based or functional assay
Measurement Type: EC50 (ng/ml), cell viability after 7 days, Human CD90+ cells (ng/mL)

Binder | Result Units | Observed Value
J16: Anti-cKIT Fab′1 conjugated to Compound (2), DAR 4 (Fab, V domains shown, Compound (2) on native cysteine LC-214C (EU); Compound (2) on native cysteines HC-220C-226C-229C (EU)) VH: QVQLVQSGAEVKKPGSSVKVSCKASGGTFSSYAISWVRQAPGQGLEWMGVIFPAEGAPGYAQKFQGRVTITADESTSTAYMELSSLRSEDTAVYYCARGGYISDFDVWGQGTLVTVSS VL: DIQMTQSPSSLSASVGDRVTITCRASQSISNYLAWYQQKPGKAPKLLIYDASSLQSGVPSRFSGSGSGTDFTLTISSLQPEDFATYYCQQYYYESITFGQGTKVEIKR | ng/mL | 9
J15: Anti-cKIT Fab′1 conjugated to Compound (5), DAR 4 (Fab, V domains shown, Compound (5) on native cysteine LC-214C (EU); Compound (5) on native cysteines HC-220C-226C-229C (EU)) VH: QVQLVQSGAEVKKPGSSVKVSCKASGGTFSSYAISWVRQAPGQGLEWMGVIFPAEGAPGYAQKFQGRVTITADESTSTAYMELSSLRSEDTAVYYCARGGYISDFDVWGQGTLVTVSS VL: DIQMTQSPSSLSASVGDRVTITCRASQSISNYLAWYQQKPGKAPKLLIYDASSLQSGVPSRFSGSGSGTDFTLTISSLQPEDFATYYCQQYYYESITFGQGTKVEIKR | ng/mL | 1
J20: Anti-cKIT Fab′3 conjugated to mc-MMAF, DAR 4 (Fab, V domains shown, mc-MMAF on native cysteine LC-214C (EU); mc-MMAF on native cysteines HC-220C-226C-229C (EU)) VH: QVQLVQSGAEVKKPGSSVKVSCKASGGTFSSYAISWVRQAPGQGLEWMGTIGPFEGQPRYAQKFQGRVTITADESTSTAYMELSSLRSEDTAVYYCARGGYISDFDVWGQGTLVTVSS VL: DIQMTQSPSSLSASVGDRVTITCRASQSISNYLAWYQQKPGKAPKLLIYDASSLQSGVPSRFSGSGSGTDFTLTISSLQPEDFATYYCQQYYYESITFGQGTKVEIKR | ng/mL | 72
J17: Anti-cKIT Fab′2 conjugated to mc-MMAF, DAR 4 (Fab, V domains shown, mc-MMAF on native cysteine LC-214C (EU); mc-MMAF on native cysteines HC-220C-226C-229C (EU)) VH: QVQLVQSGAEVKKPGSSVKVSCKASGGTFSSHALSWVRQAPGQGLEWMGGIIPSFGTADYAQKFQGRVTITADESTSTAYMELSSLRSEDTAVYYCARGLYDFDYWGQGTLVTVSS VL: DIQMTQSPSSLSASVGDRVTITCRASQDISQDLAWYQQKPGKAPKLLIYDASSLQSGVPSRFSGSGSGTDFTLTISSLQPEDFAVYYCQQYYYLPSTFGQGTKVEIKR | ng/mL | 37
J18: Anti-cKIT Fab′2 conjugated to Compound (5), DAR 4 (Fab, V domains shown, Compound (5) on native cysteine LC-214C (EU); Compound (5) on native cysteines HC-220C-226C-229C (EU)) VH: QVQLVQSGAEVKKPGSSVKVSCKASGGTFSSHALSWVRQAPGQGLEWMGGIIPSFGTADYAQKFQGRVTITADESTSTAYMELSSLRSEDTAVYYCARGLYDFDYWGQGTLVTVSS VL: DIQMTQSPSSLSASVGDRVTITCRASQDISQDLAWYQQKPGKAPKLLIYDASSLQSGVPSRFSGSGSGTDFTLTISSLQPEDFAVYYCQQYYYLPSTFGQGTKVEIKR | ng/mL | 3
J2: Anti-cKIT Fab′2 conjugated to Compound (1), DAR 4 (Fab, V domains shown, Compound (1) on native cysteine LC-214C (EU); Compound (1) on native cysteines HC-220C-226C-229C (EU)) VH: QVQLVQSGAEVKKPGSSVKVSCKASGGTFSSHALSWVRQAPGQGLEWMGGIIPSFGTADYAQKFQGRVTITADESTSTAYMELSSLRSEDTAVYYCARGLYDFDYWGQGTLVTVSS VL: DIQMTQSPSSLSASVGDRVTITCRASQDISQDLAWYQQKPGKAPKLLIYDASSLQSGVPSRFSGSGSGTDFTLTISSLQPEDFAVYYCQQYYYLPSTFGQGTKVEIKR | ng/mL | 16
J1: Anti-cKIT Fab′1 conjugated to Compound (1), DAR 4 (Fab, V domains shown, Compound (1) on native cysteine LC-214C (EU); Compound (1) on native cysteines HC-220C-226C-229C (EU)) VH: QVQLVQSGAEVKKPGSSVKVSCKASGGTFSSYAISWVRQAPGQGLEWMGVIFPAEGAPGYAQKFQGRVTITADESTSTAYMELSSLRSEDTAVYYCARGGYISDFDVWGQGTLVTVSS VL: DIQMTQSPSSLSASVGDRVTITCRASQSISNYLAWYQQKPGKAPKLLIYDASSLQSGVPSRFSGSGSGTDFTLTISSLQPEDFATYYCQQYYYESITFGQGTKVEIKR | ng/mL | 13
